Test system: E6SM
Assay: Tested for the minimum inhibitory concentration required to reduce herpes simplex virus type 2 (HSV-2) strain 196 induced cytopathogenicity by 50%.
Type: functional
Details: Homo sapiens
Provide the recorded MIC for the entries that follow.
Numbers only, in µg/mL.

Please review the entries below; each comes with its answer.
Nc1ncnc2c1ncn2C[C@@H](CO)OCP(=O)(O)O; 0.07
Nc1nc(=O)n(C2COC(CO)C(O)C2)cc1I (stereo not drawn); 20
Nc1nc(=O)n(C2COC(CO)C(O)C2)cc1Cl (stereo not drawn); 300
O=c1[nH]c(=O)n([C@H]2C[C@H](O)[C@@H](CO)O2)cc1I; 0.2
O=c1[nH]c(=O)n(C2COC(CO)C(O)C2)cc1I (stereo not drawn); 0.7

Let's switch to this compound now.
Problem: What value of MIC has been reported for the following compound? O=c1[nH]c(=O)n(C2COC(CO)C(O)C2)cc1/C=C/Br (stereo not drawn)
Result: 70
